The next entries give measured GI50 for U251 CNS.

                                   compound  parameter_measured  assay_value
0  CC(C)N1CCN(Cc2ccc3c(NNC(=O)c4ccccc4)nc4cc(F)ccc4n23)CC1                GI50       296 nM
1  COc1ccc(/C=c2\sc3n(c2=O)C2C(NN=3)N(C)C(=O)N2C)cc1 (stereo not given)                GI50      1440 nM
2  O=C(CN1CCN(c2cc3c(cc2F)c(=O)c(C(=O)O)cn3C2CC2)CC1)Nc1nc(-c2ccc(Cl)cc2)cs1                GI50      3740 nM
3  Cc1ccc(/C=C2\CN(C(=O)C(Cl)Cl)C/C(=C\c3ccc(C)cc3)C2=O)cc1                GI50       143 nM

Quick one: give me GI50 for each item below, same order please.
1. Nc1cc(O)ccc1N=Nc1ccc(-c2nc3ccccc3[nH]2)cc1
2. CC(=O)N1N=C(c2ccc(Nc3ccnc4cc(Cl)ccc34)cc2)CC1c1ccc(Cl)cc1 (stereo not given)
3. COc1ccc2c(C3(c4cn(C)c5cc(OC)ccc45)C(=O)Nc4ccc(Cl)cc43)cn(C)c2c1
4. COc1ccccc1C1=C(Nc2ccccc2)C(=O)NC1=O
5. Cn1nc(-c2ccc(Cl)cc2)nc2c(=O)n(C)c(=O)nc1-2
6. COc1cc2c(cc1OC)C(Sc1ccc(SC)cc1)c1c(nc(N)c(C#N)c1N)O2 (stereo not given)

1: 30300 nM; 2: > 100000 nM; 3: 3810 nM; 4: > 25000 nM; 5: 789 nM; 6: 1370 nM

* * *

test system: A549 NSCLC; experiment: NCI tumour cell line growth inhibition, 48 h
Task for the reader: assign each of the following compounds its reported TGI.
Give bare numbers, in µM.

Before answering, review these 3 worked examples.
In [3]: df
Out[3]:
                                   compound  units_label  assay_value
0  CCN1C(=O)CCCc2c1ccc(Nc1ncc(Cl)c(NC3[C@@H](C(N)=O)[C@@H]4C=C[C@H]3C4)n1)c2OC (stereo not given in full)           µM         5.88
1              CCCCCCCCCCCCCCCCNCCCN(C)CCCN           µM         32.1
2  Brc1ccc2[nH]cc(-c3nc(-c4c[nH]c5ncccc45)cs3)c2c1           µM         16.3

Next compound, TGI to be filled in.
Can you share its TGI? I mean this compound: `C=C1C(=O)O[C@H]2[C@H]3O[C@@H](C[C@@H]12)[C@@]1(C)CC[C@H](O1)[C@H](C)CCC[C@H]3C`
5.09

* * *

tested on: NCI-H460 lung; assay: NCI tumour cell line growth inhibition, 48 h
Task for the reader: assign each of the following compounds its reported TGI.

Before answering, review these 3 worked examples.
In [3]: df
Out[3]:
                                   compound   study_system  assay_value
0  COc1ccc(/C=C2\CCS(=O)(=O)c3ccccc3C2=O)cc1OC  NCI-H460 lung        47 µM
1  CCOC(=O)c1nc2ccccc2nc1Oc1ccc(C(=O)OC)cc1  NCI-H460 lung     > 100 µM
2                        NNc1nncc2[nH]cnc12  NCI-H460 lung     > 100 µM

Quick one: give me TGI for each item below, same order please.
1. COc1cc(OC)c2nccc(NCCCN(C)C)c2c1[N+](=O)[O-]
2. S=C(Nc1ccc(N=Nc2ccccc2)cc1)SCc1ccccc1
3. COc1ccc(NC(=O)CC(=O)n2nc(C)c(N=Nc3cccc(C)c3)c2C)cc1
4. Clc1ccc(-c2csc(Nc3cccc(-c4csc(-c5ccccc5)n4)c3)n2)cc1
5. CCn1c(SC(C)C(=O)c2c(C)n(C)n(-c3ccccc3)c2=O)nc2ccccc2c1=O (stereo not given)

1. > 100 µM
2. 39.5 µM
3. > 100 µM
4. 27.1 µM
5. > 100 µM

Quick one: give me TGI for each item below, same order please.
1. COc1cc(C2SC(C)C(=O)N2c2ccc(-c3csc(NS(=O)(=O)c4ccc(Cl)c(OC)c4)n3)cc2)ccc1O (stereo not given)
2. O=C(CSc1ncn[nH]1)C[P+](c1ccccc1)(c1ccccc1)c1ccccc1

["> 100 µM", "> 100 µM"]
